phenotypically active for assorted molecules
# Test system: HepG2-TUBA1B-RELA
# TEST_SUMMARY: phenotypically active (imaging signature differs from DMSO and reproducible) at any of 0.3-9 uM (binary (1 = active, 0 = inactive)); higher = active
# CONDITION_DESCRIPTION: treatment time: 24 h
// keep it numeric: no unit symbol after the value

CN1C[C@H](C(=O)N[C@]2(C)O[C@@]3(O)[C@@H]4CCCN4C(=O)[C@H](Cc4ccccc4)N3C2=O)C=C2c3cccc4[nH]cc(c34)C[C@H]21 [ergotamine]	1
COC[C@H]1OC(=O)c2coc3c2[C@@]1(C)C1=C(C3=O)[C@@H]2CCC(=O)[C@@]2(C)C[C@H]1OC(C)=O [wortmannin]	0
Fc1ccccc1C1=NCC(=S)N(CC(F)(F)F)c2ccc(Cl)cc21 [quazepam]	0
CN1C[C@H](C(=O)N[C@]2(C)O[C@@]3(O)[C@@H]4CCCN4C(=O)[C@H](Cc4ccccc4)N3C2=O)C[C@@H]2c3cccc4[nH]cc(c34)C[C@H]21.CN1C[C@H](C(=O)N[C@]2(C)O[C@@]3(O)[C@@H]4CCCN4C(=O)[C@H](Cc4ccccc4)N3C2=O)C[C@@H]2c3cccc4[nH]cc(c34)C[C@H]21 [dihydroergotamine]	1
O=C1CCCN1CC#CCN1CCCC1 [Oxotremorine sesquifumarate]	0

Lab note: COc1ccc(OC)c(C(O)C(C)N)c1 (stereo unspecified) [methoxamine] gave phenotypically active of 0

----------
# Tested on: HepG2-GM130-SQSTM1
# TEST_SUMMARY: phenotypically active (imaging signature differs from DMSO and reproducible) at any of 0.3-9 uM (binary (1 = active, 0 = inactive)); higher = active
# CONDITION_DESCRIPTION: treatment time: 24 h
Would you mind answering with one of these outcomes? T = active, F = inactive

Some solved entries appear below for comparison.
CC[C@H]1CN2CCc3cc(OC)c(OC)cc3[C@@H]2C[C@@H]1C[C@H]1NCCc2cc(OC)c(OC)cc21	T
CCCC(C)C1(CC)C(=O)N=C(S)NC1=O (stereo not drawn)	F

Request: Hey, what did the test say about O=C1C[C@@H]2OCC=C3CN4CC[C@]56c7ccccc7N1[C@H]5[C@H]2[C@H]3C[C@H]46 ?
Result: F

Request: Hey, what did the test say about O=c1ccc2ccc3occc3c2o1 ?
Result: F

Request: Hey, what did the test say about C[N+]12CCC(CC1)C(OC(=O)C(O)(c1ccccc1)c1ccccc1)C2 (stereo not drawn) ?
Result: F

Request: Hey, what did the test say about CC[C@H]1C2C[C@H]3[C@@H]4N(C)c5ccccc5[C@]45C[C@H](C2[C@H]5O)N3[C@@H]1O (stereo partly drawn) ?
Result: F

Request: Hey, what did the test say about C=C[C@]12CN(C)[C@@H]3[C@H]4CO[C@H](C[C@H]41)[C@]1(C(=O)Nc4ccccc41)[C@@H]32 ?
Result: F

Request: Hey, what did the test say about O=C1CCCN1CC#CCN1CCCC1 [Oxotremorine sesquifumarate] ?
Result: F

----------
phenotypically active for assorted compounds
# Tested on: HepG2-CANX-COX4
# TEST_SUMMARY: phenotypically active (imaging signature differs from DMSO and reproducible) at any of 0.3-9 uM (binary (1 = active, 0 = inactive)); higher = active
# CONDITION_DESCRIPTION: treatment time: 24 h
// keep it numeric: no unit symbol after the value

// known answers, use as guide
C[C@@H]1C[C@@H]([C@H](O)CC2CC(=O)NC(=O)C2)C(=O)[C@@H](C)C1 [Cycloheximide]	1
COc1ccc2c(c1OC)C(=O)O[C@@H]2[C@H]1c2cc3c(cc2CCN1C)OCO3 [Hydrastine]	0
COc1ccc2c3c1O[C@H]1C(=O)CC[C@@]4(O)[C@@H](C2)N(C)CC[C@]314 [oxycodone]	0

Kindly review the next compound as well.
Lab note: C=C1[C@@H](C)[C@H]2[C@H](Cc3ccccc3)NC(=O)[C@]23OC(=O)C=C[C@H](O)CCC[C@@H](C)CC=C[C@H]3[C@@H]1O [Cytochalasin B] gave phenotypically active of 1
